B1: OR4K15 (parent)
chain: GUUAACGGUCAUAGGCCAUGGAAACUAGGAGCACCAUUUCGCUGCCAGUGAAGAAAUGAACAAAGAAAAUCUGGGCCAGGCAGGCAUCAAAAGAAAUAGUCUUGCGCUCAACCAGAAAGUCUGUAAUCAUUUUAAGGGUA

Variants of: B1
TEST DESCRIPTION: self-cleavage, relative activity (ratio to wild type); higher = more cleavage; in vitro, sequencing; the parent is a self-cleaving ribozyme
MEASURED PROPERTY: self-cleavage
Note: the reply should be a number with no unit written.

Worked cases, self-cleavage given:
RESIDUE STRING	self-cleavage
GUUAACGGUCAUAGGCCAUGGAAACUAGGAGCACCAUUUCGCUGCCAGUGAAGAAAUGAUCAAAGAAAAUCUGGGCCAGGCAGGCAUCAAAAGAAAUAGUCUUGCGCUCAACCGGAAAGUCUGUAAUCAUUUUAAGGGUA	0.58
GUUAACGGUCAUAGGCCAUGGAAACUAGGAGCACCAUUACGCUGCCAGUGAAGAAAUGGACAAAGAAAAUCUGGGCCAGGCAGGCAUCAAAAGAAAUAGUCUUGCGCUCAACCAGAAAGUCUGUAAUCAUUUUAAGGGUA	1.6
GUUAACGGUCAUAGGCCAUGGAAACUAGGAGCACCAUUUCGCUGCCAGUGAAGAAAUGAACAAAUAAAAUCUGGGCCAGGCAGGCAUCAAAAGAAAUAGUCUUGCGCUCAACCAGAAAGUCUGUAAUCAUUUUAAGGGUA	2

Look up self-cleavage: `GUUAACGGUCAUAGGCCAUGGAAACUAGGAGCACCAUUUCGCUGCCAGUGAAGAAAUGAACAGAGAAAAUCUGGGCCAGGCAGGCACCAAAAGAAAUAGUCUUGCGCUCAACCAGAAAGUCUGUAAUCAUUUUAAGGGUA` 1.59

Look up self-cleavage: `GUUAACGGCCAUAGGCCAUGGAAACUAGGAGCACCAUUUCGCUGCCAGUGAAGAAAUGAACAAAGAAAAUCUGGGCCAGGCAGGCAUCAAAAGAAAUAGUCUUGCGCUCAACCAGAAAGGCUGUAAUCAUUUUAAGGGUA` 1.39

Look up self-cleavage: `GUUAACGGUCAUGGGCCAUGGAAACUAGGAGCACCAUUUCGCUGCCAGUGAAGAAAUGAACAAAGAAAAUCUGGGCCAGGCAGGCAUCAAAAGAAAUAGUCUUGCGCUCAACCAGUAAGUCUGUAAUCAUUUUAAGGGUA` 0.41

Look up self-cleavage: `GUUAACGGUCAUAGGCCAUGGAAACUAGGAGCACCAUUUCGCUGCCAGUGAAGGACUGAACAAAGAAAAUCUGGGCCAGGCAGGCAUCAAAAGAAAUAGUCUUGCGCUCAACCAGAAAGUCUGUAAUCAUUUUAAGGGUA` 1.4

Look up self-cleavage: `GUUAACGGUCAUAGGCCAUGGAAACUAGGAGCACCAUUUCGCUGCCAGUGAAGAAACGAACAAAGAAAAUCUGGGCCAGGCAGGCUUCAAAAGAAAUAGUCUUGCGCUCAACCAGAAAGUCUGUAAUCAUUUUAAGGGUA` 1.93

Look up self-cleavage: `GUUAACGGUCAUAGGCCAUGGAAACUAGGAGCACCAUUUCGCUGCCAGUGAAGAAAUGAACAAAGAAAAUCUGGGCCAGGCAGGCAUCAAAAGAAACAGUCUUGCGCUCAACCAGAAAGUCGGUAAUCAUUUUAAGGGUA` 2.57
